Biological target: rhesus (Macaca Mulatta) H3 receptor (Macaca mulatta)
Sequence (Q865E1 1-445): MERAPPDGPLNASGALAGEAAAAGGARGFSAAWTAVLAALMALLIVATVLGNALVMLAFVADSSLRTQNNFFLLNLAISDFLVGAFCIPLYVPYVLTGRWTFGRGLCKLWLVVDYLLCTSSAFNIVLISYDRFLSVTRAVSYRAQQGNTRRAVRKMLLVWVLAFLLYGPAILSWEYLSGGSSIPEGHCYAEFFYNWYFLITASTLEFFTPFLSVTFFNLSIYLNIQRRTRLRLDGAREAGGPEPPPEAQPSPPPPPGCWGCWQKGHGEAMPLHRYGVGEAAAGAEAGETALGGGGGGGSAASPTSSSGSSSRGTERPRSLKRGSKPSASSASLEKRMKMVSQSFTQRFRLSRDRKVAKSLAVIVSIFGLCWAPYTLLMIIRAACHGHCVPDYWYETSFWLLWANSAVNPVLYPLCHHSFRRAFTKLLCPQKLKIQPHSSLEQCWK
Assay: Rhesus H3 radioligand binding assay ([3H]-Methylhistamine displacement, WGA SPA beads)
Set-up: species or system rhesus monkey (Macaca Mulatta)
Conditions: Table 2; procedure of Example 42
Where a name gives a salt, the structure may show the parent alone.
Output schema: class label derived from Ki. Mapping: band A: < 5 nM; band B: ≥ 5 nM and < 20 nM; band C: ≥ 20 nM

MOLECULE: Cc1cc(N2CC[C@H](N3CCC[C@@H]3C)C2)ccc1NC(=O)C1CCCC1 [Example 39, trifluoroacetate]
TESTED_ON: rhesus (Macaca Mulatta) H3 receptor (Macaca mulatta)
CAT: band A
--
MOLECULE: Cc1cc(N2CCC(N3CCCC3C)C2)ccc1NC(=O)C1C(C)(C)C1(C)C (stereo not shown) [Example 17, trifluoroacetate]
TESTED_ON: rhesus (Macaca Mulatta) H3 receptor (Macaca mulatta)
CAT: band C
--
MOLECULE: Cc1cc(C(=O)Nc2ccc(N3CCC(N4CCCC4C)C3)cc2C(F)(F)F)n[nH]1 (stereo not shown) [Example 35, trifluoroacetate]
TESTED_ON: rhesus (Macaca Mulatta) H3 receptor (Macaca mulatta)
CAT: band C
--
MOLECULE: Cc1cc(NC(=O)c2c(C)noc2C)ccc1N1CCC(N2CCCC2C)C1 (stereo not shown) [Example 7]
TESTED_ON: rhesus (Macaca Mulatta) H3 receptor (Macaca mulatta)
CAT: band A
--
MOLECULE: CC1CCCN1C1CCN(c2ccc(NC(=O)C3C(C)(C)C3(C)C)cc2)C1 (stereo not shown) [Example 25, trifluoroacetate]
TESTED_ON: rhesus (Macaca Mulatta) H3 receptor (Macaca mulatta)
CAT: band C
--
MOLECULE: Cc1cc(NC(=O)C2C(C)(C)C2(C)C)ccc1N1CCC(N2CCCC2C)C1 (stereo not shown) [Example 27, trifluoroacetate]
TESTED_ON: rhesus (Macaca Mulatta) H3 receptor (Macaca mulatta)
CAT: band C
--
MOLECULE: CC1CCCN1C1CCN(c2ccc(NC(=O)C3C[C@@H]4CC[C@H]3C4)cc2)C1 (stereo partly shown) [Example 29, trifluoroacetate]
TESTED_ON: rhesus (Macaca Mulatta) H3 receptor (Macaca mulatta)
CAT: band B
--
MOLECULE: Cc1cc(N2CC[C@H](N3CCC[C@@H]3C)C2)ccc1NC(=O)c1ccoc1 [Example 6]
TESTED_ON: rhesus (Macaca Mulatta) H3 receptor (Macaca mulatta)
CAT: band A
--
MOLECULE: Cc1cc(N2CCC(N3CCCC3C)C2)ccc1NC(=O)c1cn[nH]c1 (stereo not shown) [Example 33, trifluoroacetate]
TESTED_ON: rhesus (Macaca Mulatta) H3 receptor (Macaca mulatta)
CAT: band C
--
MOLECULE: Cc1cc(N2CC[C@H](N3CCC[C@@H]3C)C2)ccc1NC(=O)C1CCOCC1 [Example 4]
TESTED_ON: rhesus (Macaca Mulatta) H3 receptor (Macaca mulatta)
CAT: band A
--
MOLECULE: CC1CCCN1C1CCN(c2ccc(NC(=O)C3CC3)cc2)C1 (stereo not shown) [Example 40, trifluoroacetate]
TESTED_ON: rhesus (Macaca Mulatta) H3 receptor (Macaca mulatta)
CAT: band B
--
MOLECULE: Cc1nc(C(=O)Nc2ccc(N3CC[C@H](N4CCC[C@@H]4C)C3)cc2C)co1 [Example 28, trifluoroacetate]
TESTED_ON: rhesus (Macaca Mulatta) H3 receptor (Macaca mulatta)
CAT: band A
--
MOLECULE: Cc1cc(C(=O)Nc2ccc(N3CC[C@H](N4CCC[C@@H]4C)C3)cc2C)on1 [Example 5]
TESTED_ON: rhesus (Macaca Mulatta) H3 receptor (Macaca mulatta)
CAT: band A
--
MOLECULE: Cc1cc(N2CC[C@H](N3CCC[C@@H]3C)C2)ccc1NC(=O)C1CC2CCC1C2 (stereo partly shown) [Example 3]
TESTED_ON: rhesus (Macaca Mulatta) H3 receptor (Macaca mulatta)
CAT: band A
--
MOLECULE: CC1CCCN1C1CCN(c2ccc(NC(=O)C3CC3)c(C(F)(F)F)c2)C1 (stereo not shown) [Example 30, trifluoroacetate]
TESTED_ON: rhesus (Macaca Mulatta) H3 receptor (Macaca mulatta)
CAT: band B
--
MOLECULE: Cc1noc(C)c1C(=O)Nc1ccc(N2CCC(N3CCCC3C)C2)cc1 (stereo not shown) [Example 26, trifluoroacetate]
TESTED_ON: rhesus (Macaca Mulatta) H3 receptor (Macaca mulatta)
CAT: band A
--
MOLECULE: Cc1cc(NC(=O)C2CC2)ccc1N1CCC(N2CCCC2C)C1 (stereo not shown) [Example 41, trifluoroacetate]
TESTED_ON: rhesus (Macaca Mulatta) H3 receptor (Macaca mulatta)
CAT: band B
--
MOLECULE: Cc1cc(C(=O)Nc2ccc(N3CCC(N4CCCC4C)C3)cc2)n[nH]1 (stereo not shown) [Example 31, trifluoroacetate]
TESTED_ON: rhesus (Macaca Mulatta) H3 receptor (Macaca mulatta)
CAT: band C
--
MOLECULE: CC1CCCN1C1CCN(c2ccc(NC(=O)C3CCOCC3)cc2)C1 (stereo not shown) [Example 9]
TESTED_ON: rhesus (Macaca Mulatta) H3 receptor (Macaca mulatta)
CAT: band B
--
MOLECULE: Cc1cc(C(=O)Nc2ccc(N3CC[C@H](N4CCC[C@@H]4C)C3)c(C)c2)n[nH]1 (stereo in doubt) [Example 22, trifluoroacetate]
TESTED_ON: rhesus (Macaca Mulatta) H3 receptor (Macaca mulatta)
CAT: band B
--
MOLECULE: Cc1cc(NC(=O)c2cn[nH]c2)ccc1N1CCC(N2CCCC2C)C1 (stereo not shown) [Example 34, trifluoroacetate]
TESTED_ON: rhesus (Macaca Mulatta) H3 receptor (Macaca mulatta)
CAT: band C
--
MOLECULE: Cc1cc(NC(=O)CC2CCCC2)ccc1N1CCC(N2CCCC2C)C1 (stereo not shown) [Example 38, trifluoroacetate]
TESTED_ON: rhesus (Macaca Mulatta) H3 receptor (Macaca mulatta)
CAT: band B
--
MOLECULE: Cc1cc(C(=O)Nc2ccc(N3CCC(N4CCCC4C)C3)cc2C)n[nH]1 (stereo not shown) [Example 20, trifluoroacetate]
TESTED_ON: rhesus (Macaca Mulatta) H3 receptor (Macaca mulatta)
CAT: band C
--
MOLECULE: Cc1cc(C(=O)Nc2ccc(N3CC[C@H](N4CCC[C@@H]4C)C3)cc2C)n[nH]1 [Example 14]
TESTED_ON: rhesus (Macaca Mulatta) H3 receptor (Macaca mulatta)
CAT: band A
